These measurements were taken from patent US9434711B2.

# TARGET_SYSTEM: canine TRPM8 (Canis lupus familiaris, UniProt Q1A7N1)
# Sequence (Q1A7N1 1-1104): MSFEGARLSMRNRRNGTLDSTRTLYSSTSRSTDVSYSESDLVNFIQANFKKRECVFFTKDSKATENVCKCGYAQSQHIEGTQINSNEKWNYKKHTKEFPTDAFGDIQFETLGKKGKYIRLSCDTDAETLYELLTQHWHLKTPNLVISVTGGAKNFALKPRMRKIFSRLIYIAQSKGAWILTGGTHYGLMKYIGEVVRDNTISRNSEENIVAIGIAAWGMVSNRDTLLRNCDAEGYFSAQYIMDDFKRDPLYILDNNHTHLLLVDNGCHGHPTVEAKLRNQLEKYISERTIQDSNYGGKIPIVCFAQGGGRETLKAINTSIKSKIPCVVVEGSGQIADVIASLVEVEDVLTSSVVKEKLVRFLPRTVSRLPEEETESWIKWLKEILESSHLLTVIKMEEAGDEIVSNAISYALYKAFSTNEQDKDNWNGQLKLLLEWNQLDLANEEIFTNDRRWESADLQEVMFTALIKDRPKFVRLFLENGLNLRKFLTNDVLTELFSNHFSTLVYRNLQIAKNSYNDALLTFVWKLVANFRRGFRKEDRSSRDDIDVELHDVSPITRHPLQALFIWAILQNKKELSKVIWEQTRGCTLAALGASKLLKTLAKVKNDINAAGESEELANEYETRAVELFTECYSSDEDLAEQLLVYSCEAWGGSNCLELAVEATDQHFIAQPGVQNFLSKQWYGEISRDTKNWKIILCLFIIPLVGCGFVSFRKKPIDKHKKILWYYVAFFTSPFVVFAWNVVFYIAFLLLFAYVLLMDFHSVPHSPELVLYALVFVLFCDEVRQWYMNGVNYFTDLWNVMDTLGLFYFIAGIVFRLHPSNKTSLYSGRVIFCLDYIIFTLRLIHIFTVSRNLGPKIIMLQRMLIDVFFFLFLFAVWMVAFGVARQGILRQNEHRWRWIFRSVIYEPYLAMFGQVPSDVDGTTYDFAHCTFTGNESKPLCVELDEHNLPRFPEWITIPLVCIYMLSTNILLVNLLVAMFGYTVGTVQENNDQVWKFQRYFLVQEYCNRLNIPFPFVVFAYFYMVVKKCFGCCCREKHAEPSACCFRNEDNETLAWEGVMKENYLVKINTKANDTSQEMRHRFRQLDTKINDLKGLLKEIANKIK
# PROTOCOL: In Vitro Canine TRPM8 Functional Assay (Ca2+ fluorescence, icilin activation)
# Format: cell-based
# TEST_CONTEXT: HEK293 cells stably expressing canine TRPM8; icilin activation; eight-point dose-response; read-out: IC50
MEASURED_ATTRIBUTE: pIC50
Give only the number. pIC50 is defined as minus log10 of concentration in molar units.

Notebook: Cc1c(N(CCCC(F)(F)F)S(=O)(=O)c2ccc3[nH]c(=O)oc3c2)sc2ccccc12 , pIC50 read as 7.77

Input O=S(=O)(c1ccccc1)N(CCCc1ccccc1)c1sc2ccccc2c1Br . Output pIC50: 8.06

Briefly, pIC50 measured for Cc1c(N(CCC2CC2)S(=O)(=O)c2ccc(-c3nnn[nH]3)cc2)sc2ccccc12 : 8.18

pIC50 for O=C(O)c1ccc(S(=O)(=O)N(CC2CCOCC2)c2sc3ccccc3c2Br)cc1 is 7.85

# pIC50 (compound: O=Cc1c(N(Cc2ccc(F)c(F)c2)S(=O)(=O)c2ccccc2)sc2ccccc12 ) is 7.89

Notebook: O=S(=O)(c1ccc(Cl)nc1)N(Cc1ccc(F)c(C(F)(F)F)c1)c1sc2ccccc2c1Br , pIC50 read as 8.00

The measured pIC50 associated with Nc1ccc(S(=O)(=O)N(CCC(F)(F)F)c2sc3ccccc3c2Br)cc1Br reads 7.92

The compound Cc1c(N(CCOC(C)(C)C)S(=O)(=O)c2ccccc2)sc2ccccc12 showed pIC50 equal to 8.17

Notebook: O=c1[nH]c(-c2ccc(S(=O)(=O)N(CCC3CC3)c3sc4ccccc4c3Br)cc2)ns1 , pIC50 read as 7.85

---

For each of the molecules below, state its inhibition at 0.2 µM.
# TARGET_SYSTEM: UniProt Q1A7N1
# PROTOCOL: In Vitro Canine TRPM8 Functional Assay (Ca2+ fluorescence, icilin activation)
# Assay type: cell-based
# TEST_CONTEXT: compound at 0.2 μM; canine TRPM8, icilin activation; read-out: % Inh @ 0.2
Dear colleague, please return just the value in %, with no unit written.

Noted for Cc1c(N(Cc2ccc(F)c(C(F)(F)F)c2)S(=O)(=O)c2ccc(C(=O)NO)cc2)sc2ccccc12 [Compound 555] : its inhibition at 0.2 µM reads 102

// O=S(=O)(c1ccsc1)N(Cc1ccc(F)c(C(F)(F)F)c1)c1sc2ccccc2c1Br [Compound 186] : inhibition at 0.2 µM value = 103

Entry under test: Cc1c(N(CCC(F)(F)F)S(=O)(=O)CCC(=O)O)sc2ccccc12 [Compound 604] . Its inhibition at 0.2 µM was 13

Measured inhibition at 0.2 µM, CCCCN(C1=C(OC)c2ccccc2S1(=O)=O)S(=O)(=O)c1ccc(C(=O)O)cc1 [Compound 434] : 90

The measured inhibition at 0.2 µM associated with COC(=O)c1ccc(S(=O)(=O)N(Cc2ccc(F)c(C(F)(F)F)c2)c2sc3ccccc3c2C(C)(C)O)cc1 [Compound 415] reads 92

# molecule N#Cc1cccc(S(=O)(=O)N(CCCC(F)(F)F)c2cc3ccccc3s2)c1 [Compound 574] ; its inhibition at 0.2 µM = 16

Summary for this molecule, CCCCN(c1cc2ccccc2s1)S(=O)(=O)c1ccc(N2CCOCC2)cc1 [Compound 446] : inhibition at 0.2 µM is 82

Reported inhibition at 0.2 µM for CC(C)(O)c1c(N(Cc2ccc(F)c(C(F)(F)F)c2)S(=O)(=O)c2ccccc2)sc2ccccc12 [Compound 316] was 101

inhibition at 0.2 µM recorded for this molecule, O=c1[nH]c(-c2ccc(S(=O)(=O)N(CCCC(F)(F)F)c3sc4ccccc4c3Br)cc2)no1 [Compound 514] , is 100

Measured inhibition at 0.2 µM of O=S(=O)(c1ccc(-c2nnn[nH]2)cc1)N(CCCC(F)(F)F)c1cc2ccccc2s1 [Compound 425] : 86

Note to self: inhibition at 0.2 µM recorded for Cc1c(N(CCCCC(F)(F)F)S(=O)(=O)CC(F)(F)F)sc2ccccc12 [Compound 673] was 94.4

Record CS(=O)(=O)Nc1ccc(S(=O)(=O)N(CCCCC(F)(F)F)c2sc3ccccc3c2Br)cc1 [Compound 680] . Reported inhibition at 0.2 µM: 96.2

Reported inhibition at 0.2 µM for CN(C)S(=O)(=O)N(CC1CC1)c1sc2ccccc2c1Br [Compound 266] was 86

Documented inhibition at 0.2 µM of Cc1c(N(Cc2ccc(F)c(C(F)(F)F)c2)S(=O)(=O)c2cccnc2N(C)C)sc2ccccc12 [Compound 358] : 92

Summary for this molecule, CCCN(c1sc2ccccc2c1C)S(=O)(=O)c1ccc(C(=O)O)cc1 [Compound 404] : inhibition at 0.2 µM is 96

Notebook: O=S(=O)(CC(F)(F)F)N(Cc1ccc(F)c(C(F)(F)F)c1)c1sc2ccccc2c1Cl [Compound 703] , inhibition at 0.2 µM read as 80

Noted for COc1ncccc1S(=O)(=O)N(Cc1ccc(F)c(C(F)(F)F)c1)c1sc2ccccc2c1C [Compound 357] : its inhibition at 0.2 µM reads 95

So for Nc1ccc(S(=O)(=O)N(CCC(F)(F)F)c2cc3ccccc3s2)cc1 [Compound 499] , the logged inhibition at 0.2 µM turned out to be 101

// field: inhibition at 0.2 µM; key: Cc1c(N(Cc2ccc(F)c(C(F)(F)F)c2)S(=O)(=O)c2ccc(N(C)C)nc2)sc2ccccc12 [Compound 360] ; value = 92
